pIC50: −log10 of the molar value.
These molecules were tested on mTORC (Homo sapiens (Human)); pIC50 is the recorded read-out.
Sequence (P42345 1360-2549): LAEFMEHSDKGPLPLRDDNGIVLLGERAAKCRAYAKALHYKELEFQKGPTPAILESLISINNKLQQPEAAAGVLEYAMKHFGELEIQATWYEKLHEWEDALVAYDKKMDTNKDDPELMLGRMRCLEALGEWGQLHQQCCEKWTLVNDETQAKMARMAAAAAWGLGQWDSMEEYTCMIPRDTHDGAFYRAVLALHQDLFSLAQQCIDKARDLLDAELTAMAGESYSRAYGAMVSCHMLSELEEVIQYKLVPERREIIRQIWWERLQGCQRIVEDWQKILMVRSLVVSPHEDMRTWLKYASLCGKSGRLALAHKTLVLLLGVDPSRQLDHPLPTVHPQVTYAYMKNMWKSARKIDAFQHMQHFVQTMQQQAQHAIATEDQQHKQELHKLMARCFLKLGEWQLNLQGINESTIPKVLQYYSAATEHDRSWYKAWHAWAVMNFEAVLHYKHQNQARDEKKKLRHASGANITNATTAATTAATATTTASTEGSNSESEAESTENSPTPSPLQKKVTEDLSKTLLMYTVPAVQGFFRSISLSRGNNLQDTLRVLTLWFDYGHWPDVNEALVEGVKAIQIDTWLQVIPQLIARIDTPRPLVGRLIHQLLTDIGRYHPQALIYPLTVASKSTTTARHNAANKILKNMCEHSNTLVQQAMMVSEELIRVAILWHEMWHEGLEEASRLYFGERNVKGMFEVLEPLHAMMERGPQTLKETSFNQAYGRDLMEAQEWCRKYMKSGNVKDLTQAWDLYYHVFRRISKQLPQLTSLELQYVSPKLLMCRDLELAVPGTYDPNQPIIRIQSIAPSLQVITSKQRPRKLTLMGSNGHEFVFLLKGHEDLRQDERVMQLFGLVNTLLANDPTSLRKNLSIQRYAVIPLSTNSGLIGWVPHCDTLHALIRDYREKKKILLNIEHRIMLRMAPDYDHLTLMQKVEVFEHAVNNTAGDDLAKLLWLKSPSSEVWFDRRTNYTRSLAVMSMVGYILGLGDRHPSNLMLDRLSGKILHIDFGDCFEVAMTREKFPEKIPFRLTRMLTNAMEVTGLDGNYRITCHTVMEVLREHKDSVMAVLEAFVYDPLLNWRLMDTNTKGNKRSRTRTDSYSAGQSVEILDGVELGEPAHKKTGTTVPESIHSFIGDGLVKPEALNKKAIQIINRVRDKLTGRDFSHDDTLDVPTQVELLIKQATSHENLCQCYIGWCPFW

Worked examples, 5 molecules total:
Would you mind telling me what pIC50 value was observed for `C[C@@H]1CN(C2CN(c3cnc4ccc(-c5ccc6oc(N)nc6c5)nc4c3)C2)CCN1C` ?
< 5.00

Would you mind telling me what pIC50 value was observed for CC(=O)Nc1nc2ccc(-c3ccc4nccc(-c5ccncc5)c4c3)cc2s1 [Compound 2] ?
< 5.00

Would you mind telling me what pIC50 value was observed for `CS(=O)(=O)N1CCN(C2CN(c3cnc4ccc(-c5ccc6oc(N)nc6c5)cc4n3)C2)CC1` ?
< 5.00

Would you mind telling me what pIC50 value was observed for `CC(=O)N1CCN(C2CN(c3cnc4ccc(-c5ccc6oc(N)nc6c5)cc4n3)C2)CC1` ?
< 5.00

Would you mind telling me what pIC50 value was observed for Nc1nc2cc(-c3ccc4nccn4c3)ccc2o1 [Compound 40] ?
> 5.00

Further cases:
Would you mind telling me what pIC50 value was observed for `Nc1nc2cc(-c3ccc4ncn(C5CCOCC5)c(=O)c4c3)ccc2o1` ?
< 5.00

Would you mind telling me what pIC50 value was observed for `Nc1nc2cc(-c3ccc4nc(N)oc4c3)ccc2o1` ?
> 5.00

Would you mind telling me what pIC50 value was observed for `Cc1nccn1C1CN(c2cnc3ccc(-c4ccc5oc(N)nc5c4)nc3n2)C1` ?
< 5.00

Would you mind telling me what pIC50 value was observed for `Nc1nc2cc(-c3cccc4[nH]nc(N)c34)ccc2o1` ?
< 5.00

Would you mind telling me what pIC50 value was observed for `N#Cc1cnc2ccc(-c3ccc4oc(N)nc4c3)cc2c1Cl` ?
> 6.00

Would you mind telling me what pIC50 value was observed for `CN1CCN(C2CN(c3cnc4ccc(-c5ccc6oc(N)nc6c5)nc4n3)C2)CC1` ?
< 5.00

Would you mind telling me what pIC50 value was observed for CN1CCN(C(=O)c2cnc3ccc(-c4ccc5oc(N)nc5c4)cn23)CC1 [Compound 44] ?
> 5.00

Would you mind telling me what pIC50 value was observed for Nc1ncnc2ccc(-c3ccc4nccc(-c5ccncc5)c4c3)cc12 [Compound 8] ?
< 5.00

Would you mind telling me what pIC50 value was observed for `C[C@@H]1CN(C(=O)C2CN(c3cnc4ccc(-c5ccc6oc(N)nc6c5)cc4n3)C2)CCN1` ?
> 5.00

Would you mind telling me what pIC50 value was observed for `CC1(C)CN(C2CN(c3cnc4ccc(-c5ccc6oc(N)nc6c5)nc4c3)C2)CCN1` ?
< 5.00

Would you mind telling me what pIC50 value was observed for CN1CCC(Nc2ncnc3ccc(-c4ccc5oc(N)nc5c4)cc23)CC1 [Compound 35] ?
> 5.00

Would you mind telling me what pIC50 value was observed for `CC(C)Oc1nc(-c2ccc3oc(N)nc3c2)cnc1N` ?
> 6.00

Would you mind telling me what pIC50 value was observed for Nc1nc2cc(-c3ccc4ncc(N5CCNC(C(F)(F)F)C5)nc4c3)ccc2o1 (stereo not drawn) ?
> 6.00

Would you mind telling me what pIC50 value was observed for `Nc1nc2cc(-c3ccc4ncc(N5CCNC(=O)C5)nc4c3)ccc2o1` ?
< 5.00

Would you mind telling me what pIC50 value was observed for `Nc1nc2cc(-c3ccc4ncc(N5C6CCC5COC6)nc4n3)ccc2o1` ?
< 5.00

====

pIC50: −log10 of the molar value.
These compounds were tested on PI3K β (Homo sapiens (Human)); pIC50 is the recorded read-out.
Sequence (P42338 whole entry): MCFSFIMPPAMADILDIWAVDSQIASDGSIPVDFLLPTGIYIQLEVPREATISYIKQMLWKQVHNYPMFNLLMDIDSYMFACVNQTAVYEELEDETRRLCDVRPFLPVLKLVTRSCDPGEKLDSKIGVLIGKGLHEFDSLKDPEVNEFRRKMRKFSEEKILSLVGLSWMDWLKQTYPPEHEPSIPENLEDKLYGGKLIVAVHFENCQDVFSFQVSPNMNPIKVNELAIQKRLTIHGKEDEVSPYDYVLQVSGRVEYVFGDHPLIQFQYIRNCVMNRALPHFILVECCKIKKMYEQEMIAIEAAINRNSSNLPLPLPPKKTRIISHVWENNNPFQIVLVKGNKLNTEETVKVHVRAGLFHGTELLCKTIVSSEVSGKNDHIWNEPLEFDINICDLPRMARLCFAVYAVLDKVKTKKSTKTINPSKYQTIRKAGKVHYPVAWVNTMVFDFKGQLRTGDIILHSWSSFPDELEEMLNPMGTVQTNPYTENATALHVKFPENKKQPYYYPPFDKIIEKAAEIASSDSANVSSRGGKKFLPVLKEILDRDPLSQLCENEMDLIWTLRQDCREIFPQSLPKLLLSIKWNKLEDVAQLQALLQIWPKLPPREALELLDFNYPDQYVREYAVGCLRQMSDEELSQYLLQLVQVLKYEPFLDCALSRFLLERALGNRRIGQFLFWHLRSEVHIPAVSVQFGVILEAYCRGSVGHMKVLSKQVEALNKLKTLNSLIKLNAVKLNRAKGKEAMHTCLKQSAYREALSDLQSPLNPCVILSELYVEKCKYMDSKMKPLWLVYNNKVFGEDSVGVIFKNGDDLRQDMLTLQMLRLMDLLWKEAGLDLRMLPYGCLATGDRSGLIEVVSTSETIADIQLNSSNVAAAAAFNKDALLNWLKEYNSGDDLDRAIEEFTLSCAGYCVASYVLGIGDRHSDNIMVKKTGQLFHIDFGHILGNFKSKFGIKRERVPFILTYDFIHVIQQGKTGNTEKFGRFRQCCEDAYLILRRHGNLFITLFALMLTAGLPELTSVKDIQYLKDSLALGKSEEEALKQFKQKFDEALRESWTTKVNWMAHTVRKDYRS
Sequence (P27986 whole entry partner): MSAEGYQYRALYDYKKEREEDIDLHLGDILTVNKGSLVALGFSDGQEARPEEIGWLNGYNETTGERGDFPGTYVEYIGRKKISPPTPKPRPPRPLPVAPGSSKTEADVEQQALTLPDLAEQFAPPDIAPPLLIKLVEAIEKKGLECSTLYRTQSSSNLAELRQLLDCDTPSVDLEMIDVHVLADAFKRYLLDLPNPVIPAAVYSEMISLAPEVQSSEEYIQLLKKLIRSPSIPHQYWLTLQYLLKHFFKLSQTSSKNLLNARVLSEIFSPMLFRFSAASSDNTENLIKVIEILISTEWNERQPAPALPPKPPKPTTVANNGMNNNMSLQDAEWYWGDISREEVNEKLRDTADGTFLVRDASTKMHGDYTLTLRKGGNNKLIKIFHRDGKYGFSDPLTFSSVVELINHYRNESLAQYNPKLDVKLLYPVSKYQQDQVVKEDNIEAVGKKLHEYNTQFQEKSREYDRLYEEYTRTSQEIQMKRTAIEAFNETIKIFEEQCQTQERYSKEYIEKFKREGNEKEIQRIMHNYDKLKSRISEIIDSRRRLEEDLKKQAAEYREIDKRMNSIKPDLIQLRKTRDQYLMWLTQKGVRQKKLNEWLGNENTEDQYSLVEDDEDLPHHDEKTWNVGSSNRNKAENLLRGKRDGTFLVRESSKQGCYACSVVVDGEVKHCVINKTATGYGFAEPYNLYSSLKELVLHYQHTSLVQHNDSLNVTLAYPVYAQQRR

Which pIC50 is reported with PI3K β (Homo sapiens (Human)) for this entry: `C[C@H]1CN(c2cnc3ccc(-c4ccc5oc(N)nc5c4)cc3n2)CCN1C` ?
> 7.00

Further cases:
Which pIC50 is reported with PI3K β (Homo sapiens (Human)) for this entry: `Nc1nc2cc(-c3ccc4ncc(N5CCN(C6CC6)CC5)nc4c3)ccc2o1` ?
> 6.00

Which pIC50 is reported with PI3K β (Homo sapiens (Human)) for this entry: `Nc1nc2cccc(-c3ccc4ncc(C(=O)N5CCOCC5)n4c3)c2o1` ?
< 5.00

Which pIC50 is reported with PI3K β (Homo sapiens (Human)) for this entry: `Nc1nc2cc(-c3ccc4ncc(N5CCC(n6cccn6)CC5)nc4c3)ccc2o1` ?
< 5.00

====

Assay: PI 3-Kinase (human) HTRF assay, p110δ/p85α
Format: biochemical
Conditions: read-out: PI3K γ IC50
Quantity Name: IC50

Worked examples, 6 molecules total:
Would you mind telling me what IC50 value was observed for `Nc1nc2cc(-c3ccc4ncc(C(=O)N5CCOCC5)n4c3)cc(F)c2o1` ?
< 10 µM

Would you mind telling me what IC50 value was observed for `Nc1nc2cc(-c3ccc4ncc(N5CC[C@@H](N6CCOCC6)C5)nc4c3)ccc2o1` ?
< 10 µM

Would you mind telling me what IC50 value was observed for `Cc1nccn1C1CN(c2cnc3ccc(-c4ccc5oc(N)nc5c4)cc3n2)C1` ?
< 10 µM

Would you mind telling me what IC50 value was observed for `Nc1nc2cc(-c3ccc4ncc(N5CC(N6CCS(=O)(=O)CC6)C5)nc4c3)ccc2o1` ?
< 10 µM

Would you mind telling me what IC50 value was observed for `Nc1nc2cc(-c3ccc4ncc(C(=O)N5CCOCC5)n4c3)cnc2o1` ?
> 10 µM

Would you mind telling me what IC50 value was observed for `CN1CCN(CCNc2cnc3ccc(-c4ccc5oc(N)nc5c4)cc3n2)CC1` ?
< 1 µM

Consider the record given below.
Would you mind telling me what IC50 value was observed for `O=C(c1cnc2ccc(-c3cnc(Cl)c(NS(=O)(=O)c4ccccc4F)c3)cn12)N1CCOCC1` ?
< 0.1 µM

====

Measured pIC50 by item
Target: PI3K γ (Homo sapiens (Human))
Sequence (P48736 whole entry, looked up): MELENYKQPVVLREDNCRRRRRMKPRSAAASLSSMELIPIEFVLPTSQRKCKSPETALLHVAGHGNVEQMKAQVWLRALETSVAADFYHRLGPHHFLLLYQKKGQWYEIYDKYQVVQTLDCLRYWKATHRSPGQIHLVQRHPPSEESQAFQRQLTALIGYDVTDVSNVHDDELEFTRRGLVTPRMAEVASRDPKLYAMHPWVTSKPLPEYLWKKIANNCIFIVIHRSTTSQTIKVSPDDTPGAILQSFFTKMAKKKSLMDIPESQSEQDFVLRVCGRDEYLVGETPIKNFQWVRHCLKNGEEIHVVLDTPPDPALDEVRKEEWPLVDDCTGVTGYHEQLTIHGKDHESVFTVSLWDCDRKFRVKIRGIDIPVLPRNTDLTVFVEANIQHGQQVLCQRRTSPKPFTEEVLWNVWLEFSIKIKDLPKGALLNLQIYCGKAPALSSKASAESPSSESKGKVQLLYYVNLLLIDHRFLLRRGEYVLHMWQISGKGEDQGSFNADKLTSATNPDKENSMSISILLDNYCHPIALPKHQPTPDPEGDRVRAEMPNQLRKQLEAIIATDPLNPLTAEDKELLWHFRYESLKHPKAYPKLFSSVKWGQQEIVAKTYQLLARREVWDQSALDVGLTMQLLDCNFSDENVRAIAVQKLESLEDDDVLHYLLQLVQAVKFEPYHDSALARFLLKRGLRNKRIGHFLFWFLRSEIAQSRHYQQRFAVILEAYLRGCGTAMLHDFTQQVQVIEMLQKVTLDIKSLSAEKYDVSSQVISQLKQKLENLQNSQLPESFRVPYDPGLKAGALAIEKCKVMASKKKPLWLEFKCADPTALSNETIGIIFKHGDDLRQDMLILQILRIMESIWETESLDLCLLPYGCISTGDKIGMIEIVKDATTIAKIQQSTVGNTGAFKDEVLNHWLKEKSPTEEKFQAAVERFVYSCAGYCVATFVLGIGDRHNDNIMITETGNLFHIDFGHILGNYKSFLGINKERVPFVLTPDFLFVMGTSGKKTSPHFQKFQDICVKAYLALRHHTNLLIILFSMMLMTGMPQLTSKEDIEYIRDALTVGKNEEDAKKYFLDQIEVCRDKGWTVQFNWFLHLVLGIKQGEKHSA
Assay: PI 3-Kinase (human) HTRF assay, p110γ
Type: biochemical
Settings: read-out: PI3K δ IC50
pIC50: −log10 of the molar value.

Worked examples, 5 compounds total:
Would you mind telling me what pIC50 value was observed for `CS(=O)(=O)CCN1CCN(C(=O)c2cnc3ccc(-c4ccc5oc(N)nc5c4)cn23)CC1` ?
> 6.00

Would you mind telling me what pIC50 value was observed for `Nc1ncc(-c2cnc3ccc(-c4ccc5oc(N)nc5c4)cc3n2)cn1` ?
< 5.00

Would you mind telling me what pIC50 value was observed for `CN1CCC(n2cnc3ccc(-c4cnc(Cl)c(NS(C)(=O)=O)c4)cc3c2=O)CC1` ?
< 5.00

Would you mind telling me what pIC50 value was observed for `CC(=O)Nc1nc2cc(-c3ccc4nc(N)oc4c3)ccc2s1` ?
> 7.00

Would you mind telling me what pIC50 value was observed for `COc1ccc(-c2ccc3ncc(C(=O)N4CCOCC4)n3c2)cc1NS(C)(=O)=O` ?
< 5.00

Consider the record given below.
Would you mind telling me what pIC50 value was observed for `O=C(c1cnc2ccc(-c3ccc4c(Nc5ccccc5)noc4c3)cn12)N1CCOCC1` ?
< 5.00

====

Test: PI 3-Kinase (human) HTRF assay, p110δ/p85α
Assay type: biochemical
Conditions: read-out: PI3K γ IC50
pIC50: −log10 of the molar value.
Measured pIC50 by item

Would you mind telling me what pIC50 value was observed for `CN1CCC(Nc2nc3cc(-c4ccc5ncc(C(=O)N6CCOCC6)n5c4)ccc3o2)CC1` ?
< 5.00

Would you mind telling me what pIC50 value was observed for `CNS(=O)(=O)c1cncc(-c2ccc3ncc(C(=O)N4CCOCC4)n3c2)c1` ?
< 5.00

Would you mind telling me what pIC50 value was observed for `CN1CCN(C2CN(c3cnc4ccc(-c5ccc6oc(N)nc6c5)cc4n3)C2)CC1=O` ?
> 5.00

Would you mind telling me what pIC50 value was observed for `CCN(CC)CCCn1cnc2ccc(-c3ccc4oc(N)nc4c3)cc2c1=O` ?
> 5.00

Consider the record given below.
Would you mind telling me what pIC50 value was observed for `Nc1nc2cc(-c3ccc4ncc(C(=O)N5CC[C@@H](n6cccn6)C5)n4c3)ccc2o1` ?
> 5.00

====

These molecules were tested on UniProt P42338; IC50 is the recorded read-out.

Would you mind telling me what IC50 value was observed for `CN1CCC(N(C)C(=O)c2cnc3ccc(-c4ccc5oc(N)nc5c4)cn23)CC1` ?
< 10 µM

Further cases:
Would you mind telling me what IC50 value was observed for `N#Cc1cnc2ccc(-c3ccc4oc(N)nc4c3)cc2c1` ?
> 10 µM

Would you mind telling me what IC50 value was observed for `Nc1nc2cc(-c3ccc4ncc(C(=O)N5CCN(CCO)CC5)n4c3)ccc2o1` ?
> 10 µM

====

These molecules were tested on mTORC (Homo sapiens (Human)); IC50 is the recorded read-out.

Which IC50 is reported with mTORC (Homo sapiens (Human)) for this entry: `CS(=O)(=O)N1CCN(Cc2cc3nc(-c4ccc5oc(N)nc5c4)nc(N4CCOCC4)c3s2)CC1` ?
< 1 µM

Further cases:
Which IC50 is reported with mTORC (Homo sapiens (Human)) for this entry: `CN1CCN([C@@H]2CCN(c3cnc4ccc(-c5ccc6oc(N)nc6c5)cc4n3)C2)CC1` ?
< 10 µM

Which IC50 is reported with mTORC (Homo sapiens (Human)) for this entry: `Cc1nccn1C1CN(c2cnc3ccc(-c4ccc5oc(N)nc5c4)nc3c2)C1` ?
> 10 µM

Which IC50 is reported with mTORC (Homo sapiens (Human)) for this entry: `CCN(CC)C1CN(c2cnc3ccc(-c4ccc5oc(N)nc5c4)cc3n2)C1` ?
> 10 µM

Which IC50 is reported with mTORC (Homo sapiens (Human)) for this entry: `Nc1nc2cc(-c3ccc4ncc(N5CC(n6cccn6)C5)nc4c3)ccc2o1` ?
< 1 µM

Which IC50 is reported with mTORC (Homo sapiens (Human)) for this entry: `Nc1nc2cc(-c3ccc4ncc(=O)[nH]c4c3)ccc2o1` ?
< 1 µM

Which IC50 is reported with mTORC (Homo sapiens (Human)) for this entry: `Nc1nc2cc(-c3ccc4ncc(N5CC(N6CCN(CCO)CC6)C5)nc4n3)ccc2o1` ?
> 10 µM

Which IC50 is reported with mTORC (Homo sapiens (Human)) for this entry: `Nc1nc2cccc(-c3ccc4nccc(-c5ccncc5)c4c3)c2o1` ?
< 0.1 µM

Which IC50 is reported with mTORC (Homo sapiens (Human)) for this entry: `Nc1nc2cc(-c3ccc4oc(N)nc4c3)ccc2o1` ?
< 10 µM

Which IC50 is reported with mTORC (Homo sapiens (Human)) for this entry: `CN1CCN(c2ccc(-c3cnc4ccc(-c5ccc6oc(N)nc6c5)cn34)cn2)CC1` ?
> 10 µM
